For each record, write down the corresponding log10 of Kd.
# target_or_system: α-synuclein (Homo sapiens (Human))
Give log10 of Kd, with Kd taken in nM.

INPUT: Return log10 of Kd (reported value) for this molecule: O=C1CCC(N2Cc3cc(OCCOCCNc4cc(-c5ccc(-c6nc7ccc(F)cc7s6)c(C(F)(F)F)c5)ccn4)ccc3C2=O)C(=O)N1 (stereo not drawn)
OUTPUT: 2.34

INPUT: Return log10 of Kd (reported value) for this molecule: CN(C)c1ccc(-c2ccc(-c3nc4ccc(C(=O)OCCOCCOCCOc5ccc6c(c5)CN(C5CCC(=O)NC5=O)C6=O)cc4s3)cc2)cn1 (stereo not drawn)
OUTPUT: 2.53

INPUT: Return log10 of Kd (reported value) for this molecule: CN(C)c1ccc(-c2ccc(-c3nc4c(OCCOCCOc5ccc6c(c5)CN(C5CCC(=O)NC5=O)C6=O)cccc4s3)cc2)cn1 (stereo not drawn)
OUTPUT: 2.77

INPUT: Return log10 of Kd (reported value) for this molecule: CN(C)c1ccc(-c2ccc(-c3nc4ccc(OCCOCCOc5cccc6c5C(=O)N(C5CCC(=O)NC5=O)C6=O)cc4s3)cc2)cn1 (stereo not drawn)
OUTPUT: 2.63

INPUT: Return log10 of Kd (reported value) for this molecule: O=C1CCC(N2Cc3cc(OCCOCCOc4ccc5nc(-c6ccc(-c7ccc(NC8CC8)nc7)cc6)sc5c4)ccc3C2=O)C(=O)N1 (stereo not drawn)
OUTPUT: 1.78

INPUT: Return log10 of Kd (reported value) for this molecule: CN(C)c1ccc(-c2ccc(-c3cn4cc(OCCOCCOc5ccc6c(c5)CN(C5CCC(=O)NC5=O)C6=O)ccc4n3)cc2)cn1 (stereo not drawn)
OUTPUT: 2.81

###

For each record, write down the corresponding DC50.
# target_or_system: α-synuclein aggregates (Homo sapiens (Human))
# assay: ReNcell VM α-synuclein aggregation assay
# Type: cell-based
# test_settings: ReNcell VM cells; read-out: Activity (DC50, concentration at which 50% of α-synuclein aggregates has been degraded)

INPUT: Determine reported DC50 for COc1ccc2nc(-c3ccc(-c4ccc(NCCOCCOc5ccc6c(c5)CN(C5CCC(=O)NC5=O)C6=O)nc4)cc3)cn2c1 (stereo not drawn) ; test system: α-synuclein aggregates (Homo sapiens (Human)).
OUTPUT: 0.9 to 10 µM

INPUT: Determine reported DC50 for CN(C)c1ccc2nc(-c3ccc(-c4ccc(NCCOCCOc5ccc6c(c5)CN(C5CCC(=O)NC5=O)C6=O)nc4)cc3)sc2c1 (stereo not drawn) ; test system: α-synuclein aggregates (Homo sapiens (Human)).
OUTPUT: > 10 µM

INPUT: Determine reported DC50 for CN(C)c1ccc2nc(-c3ccc(-c4ccc(NCCOCCOc5ccc6c(c5)C(=O)N(C5CCC(=O)NC5=O)C6=O)nc4)cc3)sc2c1 (stereo not drawn) [Compound 170353] ; test system: α-synuclein aggregates (Homo sapiens (Human)).
OUTPUT: > 10 µM

###

attribute_measured: pIC50
In simple prose, pIC50 is minus the logarithm base ten of a concentration in moles per litre.

INPUT: Determine reported pIC50 for CN(C)c1ccc(-c2ccc(-c3cn4cc(OCCOCCOc5ccc6c(c5)CN(C5CCC(=O)NC5=O)C6=O)ccc4n3)cc2)cn1 (stereo not drawn) ; test system: α-synuclein (Homo sapiens (Human), UniProt P37840).
OUTPUT: 6.20

INPUT: Determine reported pIC50 for CN(C)c1ccc(-c2ccc(-c3nc4ccc(C(=O)OCCOCCOCCOc5ccc6c(c5)CN(C5CCC(=O)NC5=O)C6=O)cc4s3)cc2)cn1 (stereo not drawn) ; test system: α-synuclein (Homo sapiens (Human), UniProt P37840).
OUTPUT: 7.52

INPUT: Determine reported pIC50 for CN(C)c1ccc(-c2ccc(-c3nc4ccc(OCCOCCOc5cccc6c5C(=O)N(C5CCC(=O)NC5=O)C6=O)cc4s3)cc2)cn1 (stereo not drawn) ; test system: α-synuclein (Homo sapiens (Human), UniProt P37840).
OUTPUT: 6.21

INPUT: Determine reported pIC50 for COc1ccc2nc(-c3ccc(-c4ccnc(NCCOCCOc5ccc6c(c5)CN(C5CCC(=O)NC5=O)C6=O)c4)cc3)oc2c1 (stereo not drawn) ; test system: α-synuclein (Homo sapiens (Human), UniProt P37840).
OUTPUT: 6.39

INPUT: Determine reported pIC50 for CN(C)c1ccc(-c2ccc(-c3nc4c(OCCOCCOc5ccc6c(c5)CN(C5CCC(=O)NC5=O)C6=O)cccc4s3)cc2)cn1 (stereo not drawn) ; test system: α-synuclein (Homo sapiens (Human), UniProt P37840).
OUTPUT: 5.59
